Tested On: T1, LNX2_2, Q8N448
T1 sequence (Q8N448 334-432, limits assumed, looked up): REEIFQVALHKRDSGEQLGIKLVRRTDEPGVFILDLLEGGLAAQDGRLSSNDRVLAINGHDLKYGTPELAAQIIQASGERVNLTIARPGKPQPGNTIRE
Protocol Details: holdup assay
Design: key: below the threshold = too weak to quantify, mostly under pKd 3.1 to 4
Test Context: plain residues with an end cap or a label only (N-terminal biotin on a linker: ado-ado)
Measured pKd of individual entries
Readout Type: pKd

Binder	Measured Result
TGLWKHETTV [ADGRA3, Q8IWK6]	4.93
APIAGFSSFV [SDK2, Q58EX2]	4.13
PPGKHLVTEV [KCNA7, Q96RP8]	4.91
KPGKGSETVV [FZD4, Q9ULV1]	4.92
DGVNEKVSCV [HTR2A, P28223]	4.42
DPAESMESLV [PTPRG, P23470]	4.3

Where do the numbers come from? From paper PMC9482650.
